Target: T1, human CD19 (human, UniProt P15391 20-556)
T1 construct: whole, on cells; also called Cluster of Differentiation 19; hPro1
T1 sequence (looked up): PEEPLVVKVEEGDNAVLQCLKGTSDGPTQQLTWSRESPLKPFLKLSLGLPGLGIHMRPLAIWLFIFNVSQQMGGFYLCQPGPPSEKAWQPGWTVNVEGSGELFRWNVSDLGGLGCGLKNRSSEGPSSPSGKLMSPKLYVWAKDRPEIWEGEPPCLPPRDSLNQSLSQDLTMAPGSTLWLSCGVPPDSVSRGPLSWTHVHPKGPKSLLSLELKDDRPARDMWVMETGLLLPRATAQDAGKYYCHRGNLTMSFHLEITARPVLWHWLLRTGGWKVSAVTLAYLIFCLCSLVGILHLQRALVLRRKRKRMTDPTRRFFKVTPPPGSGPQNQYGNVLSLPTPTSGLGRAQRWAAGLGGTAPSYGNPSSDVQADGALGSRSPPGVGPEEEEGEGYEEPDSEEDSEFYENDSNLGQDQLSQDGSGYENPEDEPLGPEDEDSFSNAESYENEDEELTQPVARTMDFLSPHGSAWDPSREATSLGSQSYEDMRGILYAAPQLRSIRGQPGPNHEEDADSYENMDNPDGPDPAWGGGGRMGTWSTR
Test: flow cytometry on Ramos cells
pEC50: −log10 of the molar value.
Quantity Kind: pEC50

# Binder, Quantity Kind, Endpoint Value
rows = [
    ("WBP7011_4.155.8 (antibody, V domains shown) VH: EIQLQQSGPELVKPGASVKVSCKASGYAFTSYNMYWVKQSHGKSLEWIGYIDPYNGDTTYNQKFKGKATLTVDKSSSTAYMHLNSLTSEDSAVYYCLTTAYAMDYWGQGTSVTVSS VL: QIVLTQSPAIMSASLGEEITLTCSASSTVNYMHWYQQKSGTSPKLLIYSTSNLASGVPSRFSGSGSGTFYSLTIRSVEAEDAADYYCHQWSSYPYTFGGGTKLEIK", "pEC50", 9.07),
    ("WBP7011-4.106.3 (antibody, V domains shown, also called W7011-4.106.3) VH: EVQLQQSGPELVKPGASVKMSCKASGYTFSSYVIHWVKQKPGQGLEWIGYINPYNDGAEYAEKFKGKATLTSDKSSSSAYMELGSLTSEDSAVYYCARGPYYYGGSPFDYWGQGTTLTVSS VL: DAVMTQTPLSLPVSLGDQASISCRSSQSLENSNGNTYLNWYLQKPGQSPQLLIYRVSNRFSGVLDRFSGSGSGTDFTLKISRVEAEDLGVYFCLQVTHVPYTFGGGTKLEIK", "pEC50", 9.64),
    ("WBP7011_4.194.10 (antibody, V domains shown, also called W7011-4.194.10) VH: EVQLQQSGPELVKPGASVKMSCKASGYTFTSYVMHWVKQKPGQGLEWIGYINPYNDGTKYNEKFKGKATLTSDKSSSTAYMELSSLTSEDSAVYYCARGPYYYGSSPFDYWGQGTTLTVSS VL: DAVMTQTPLSLPVSLGDQASISCRSSQTLENSNGNTYLNWYLQKPGQSPQLLIYRVSNRFSGVLDRFSGSGSGTDFTLKISRVETEDLGVYFCLQVTHVPYTFGGGTKLEIK", "pEC50", 9.82),
]
